Ref: ChEMBL document CHEMBL5107994

Molecular target: Glutamate NMDA receptor
Experiment: Displacement of 3[H]ifenprodil from NMDA receptor in Wistar rat brain membrane incubated for 2 hrs by scintillation counting method
Assay type: cell membranes
Please respond with TRUE when measured IC50 is strictly beneath 30 µM, and with FALSE in all other cases.

// known answers, use as guide
>>> print(df.to_string())
                                   compound    cat
0  OC(COc1ccccc1)c1ccc(-c2ccccc2)cc1 (centres undefined)  FALSE
1  Oc1ccc(OCC(O)c2ccc(-c3ccccc3)cc2)cc1 (centres undefined)  FALSE
2  Oc1cccc(NCC(O)c2ccc(-c3ccccc3)cc2)c1 (centres undefined)   TRUE
3  NC(COc1cccc(O)c1)c1ccc(-c2ccccc2)cc1 (centres undefined)  FALSE
4  OC(CNc1ccccc1)c1ccc(-c2ccccc2)cc1 (centres undefined)  FALSE
5  CS(=O)(=O)Nc1cccc(NCC(O)c2ccc(-c3ccccc3)cc2)c1 (centres undefined)   TRUE

Asked: Could you please tell me whether IC50 recorded for CCNc1cccc(NCC(O)c2ccc(-c3ccccc3)cc2)c1 (centres undefined) is less than 30 µM?
Given back: FALSE

Asked: Could you please tell me whether IC50 recorded for CS(=O)(=O)Nc1cccc(NCC(O)c2ccc(-c3ccc(Br)cc3)cc2)c1 (centres undefined) is less than 30 µM?
Given back: TRUE
